# maps each entry to its IC50
# Assay target: Human Indoleamine 2,3-dioxygenase (IDO) (Homo sapiens, UniProt P14902)
# Construct: His tag (N); made in house; host or cells: E. coli
# Sequence (P14902 whole entry): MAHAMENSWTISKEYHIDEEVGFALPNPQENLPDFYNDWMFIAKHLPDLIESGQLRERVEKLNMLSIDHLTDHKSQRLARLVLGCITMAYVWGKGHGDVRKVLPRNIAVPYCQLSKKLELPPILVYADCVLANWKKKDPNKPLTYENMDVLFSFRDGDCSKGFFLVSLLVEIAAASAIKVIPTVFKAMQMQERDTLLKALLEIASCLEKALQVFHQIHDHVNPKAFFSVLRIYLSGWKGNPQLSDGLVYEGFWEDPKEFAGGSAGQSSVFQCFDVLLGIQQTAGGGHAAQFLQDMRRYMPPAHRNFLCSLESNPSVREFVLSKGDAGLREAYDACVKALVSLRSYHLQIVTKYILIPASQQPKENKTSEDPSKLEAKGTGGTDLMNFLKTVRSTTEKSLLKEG
# Test: Human IDO enzymatic assay (kynurenine level)
# Format: biochemical
# Experimental setup: 6 nM IDO, 10 μM L-Trp; geometric mean; read-out: IDO1 GMean: IC50 (μM) (Biochemical Assay)

Short answer for CCS(=O)(=O)N1CCC(C(F)(F)C(O)c2cc(Cl)cc3cn[nH]c23)CC1 (centres unmarked) : IC50 was 0.0001 to 10 µM

Short answer for CC(C)(C)OC(=O)N1CCC(C(C)(C)C(O)c2cc(Cl)cc3[nH]ncc23)CC1 (centres unmarked) : IC50 was 0.0001 to 10 µM

Short answer for CCC(=O)N1CCC(C(F)(F)C(O)c2c(F)c(Cl)cc3cn[nH]c23)CC1 (centres unmarked) : IC50 was 0.0001 to 10 µM

Short answer for CCC(=O)NC(C)(C)CC(O)c1cc(Cl)cc2cn[nH]c12 (centres unmarked) : IC50 was 0.0001 to 10 µM

Short answer for "CNC(=O)CNC(=O)N1CCC(C(C)(C)[C@H](O)c2cc(Cl)cc3cn[nH]c23)CC1" : IC50 was 0.0001 to 10 µM

Short answer for CCC(=O)N1CCC(C(C)(C)C(O)c2c(F)c(Cl)cc3cn[nH]c23)CC1 (centres unmarked) : IC50 was 0.0001 to 10 µM

Short answer for CC(C)(C(O)c1cc(Cl)cc2cn[nH]c12)[C@@H]1C[C@H]2CC[C@@H](C1)N2S(C)(=O)=O (some centres unmarked) : IC50 was 0.0001 to 10 µM

Short answer for CC(C)(C)C(O)c1c(Cl)c(Cl)cc2cn[nH]c12 (centres unmarked) : IC50 was 0.0001 to 10 µM

---

# maps each entry to its IC50
# Assay target: human TDO (TDO-expressing HEK293 cells) (Homo sapiens)
# Construct: expressed in transfected cells
# Test: Cell based kynurenine assay, TDO-expressing HEK293 cell clones
# Experimental setup: TDO-expressing HEK293 cells, 24 hours incubation; geometric mean; read-out: HEK293 TDO Kynurenine GMean IC50 (μM) (Cellular Assay)

Check out these entries, answers already filled in.
> print(dat)
                                   compound      assay.value
1  OC(c1cc(Cl)cc2cn[nH]c12)C(C1CC1)C1CC1 (centres unmarked)  0.0001 to 10 µM
2  CC(C)(C1CCN(S(=O)(=O)c2ccccc2)CC1)C(O)c1cc(Cl)cc2cn[nH]c12 (centres unmarked)  0.0001 to 10 µM
3  Cc1cc(C(O)C2(C)CCCCC2)c2[nH]ncc2c1 (centres unmarked)  0.0001 to 10 µM

Item OC(c1cc(Cl)cc2cn[nH]c12)C1(C(F)(F)F)CCCC1 (centres unmarked) ; assay system human TDO (TDO-expressing HEK293 cells) (Homo sapiens); IC50 reported as 0.0001 to 10 µM

Item CC(C)(C1CCCCC1)C(O)c1cc(Cl)cc2cncn12 (centres unmarked) ; assay system human TDO (TDO-expressing HEK293 cells) (Homo sapiens); IC50 reported as 0.0001 to 10 µM

---

# Assay target: human TDO (TDO-expressing HEK293 cells) (Homo sapiens, UniProt P48775)
# Construct: expressed in transfected cells
# Sequence (P48775 whole entry): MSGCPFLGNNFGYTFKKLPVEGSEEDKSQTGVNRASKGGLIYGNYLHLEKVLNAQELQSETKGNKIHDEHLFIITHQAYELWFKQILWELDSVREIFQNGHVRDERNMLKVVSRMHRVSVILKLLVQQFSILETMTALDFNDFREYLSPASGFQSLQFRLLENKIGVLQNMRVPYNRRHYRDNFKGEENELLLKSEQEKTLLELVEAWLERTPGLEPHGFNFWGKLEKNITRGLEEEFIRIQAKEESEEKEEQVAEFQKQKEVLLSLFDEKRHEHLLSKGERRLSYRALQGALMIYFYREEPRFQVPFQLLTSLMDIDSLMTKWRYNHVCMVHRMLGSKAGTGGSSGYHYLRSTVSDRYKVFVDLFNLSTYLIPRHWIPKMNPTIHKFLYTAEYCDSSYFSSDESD
# Test: Cell based kynurenine assay, TDO-expressing HEK293 cell clones
# Experimental setup: TDO-expressing HEK293 cells, 24 hours incubation; geometric mean; read-out: HEK293 TDO Kynurenine GMean IC50 (μM) (Cellular Assay)
# maps each entry to its IC50

Check out these entries, answers already filled in.
> print(dat)
                                   compound      assay.value
1  OC(c1cccc2cncn12)C12CC3CC(CC(C3)C1)C2 (centres unmarked) [Compound P-0087]          > 10 µM
2  CC(C)(C1CCN(C(=O)Nc2ccc(F)cc2)CC1)[C@H](O)c1cc(Cl)cc2cn[nH]c12 [Compound P-0344]  0.0001 to 10 µM

Item OC(c1cc(Cl)cc2[nH]ncc12)C12CCC(CC1)CC2 (centres unmarked) [Compound P-0146] ; assay system human TDO (TDO-expressing HEK293 cells) (Homo sapiens, UniProt P48775); IC50 reported as 0.0001 to 10 µM

Item OC(CC1C2CCC1CNC2)c1cc(Cl)cc2cn[nH]c12 (centres unmarked) [Compound P-0274] ; assay system human TDO (TDO-expressing HEK293 cells) (Homo sapiens, UniProt P48775); IC50 reported as > 10 µM

Item O=C(Nc1cccc(F)c1)N1CCC(C(F)(F)C(O)c2cc(Cl)cc3cn[nH]c23)CC1 (centres unmarked) [Compound P-0152] ; assay system human TDO (TDO-expressing HEK293 cells) (Homo sapiens, UniProt P48775); IC50 reported as 0.0001 to 10 µM

Item CC(C)(C1CCN(C(=O)NC2CCC2)CC1)C(O)c1cc(Cl)cc2cn[nH]c12 (centres unmarked) [Compound P-0387] ; assay system human TDO (TDO-expressing HEK293 cells) (Homo sapiens, UniProt P48775); IC50 reported as 0.0001 to 10 µM

Item COc1ccc(NC(=O)N2CCC(C(C)(C)C(O)c3cc(Cl)cc4cn[nH]c34)CC2)cc1 (centres unmarked) [Compound P-0183] ; assay system human TDO (TDO-expressing HEK293 cells) (Homo sapiens, UniProt P48775); IC50 reported as 0.0001 to 10 µM

Item OC(c1cc(Cl)cc2cn[nH]c12)C1(C(F)F)CCC1 (centres unmarked) [Compound P-0194] ; assay system human TDO (TDO-expressing HEK293 cells) (Homo sapiens, UniProt P48775); IC50 reported as 0.0001 to 10 µM

---

# Assay target: Human Tryptophan 2,3-dioxygenase (TDO) (Homo sapiens, UniProt P48775)
# Construct: His tag (N); made in house; host or cells: E. coli
# Sequence (P48775 whole entry): as above
# Test: Human TDO enzymatic assay (kynurenine level)
# Assay type: biochemical
# Experimental setup: 1 nM TDO, 350 μM L-Trp; geometric mean; read-out: TDO GMean: IC50 (μM) (Biochemical Assay)
# maps each entry to its IC50

Short answer for OC1(c2cc(Cl)cc3cn[nH]c23)[C@H]2CCC[C@@H]1CCC2 (stereo partly shown) : IC50 was 0.0001 to 10 µM

Short answer for "CC(C)(C1CCN(C(=O)NC2CC2)CC1)[C@H](O)c1c(F)c(Cl)cc2cn[nH]c12" : IC50 was 0.0001 to 10 µM

Short answer for CN1CCN(Cc2ccc(NC(=O)N3CCC(C(C)(C)C(O)c4cc(Cl)cc5cn[nH]c45)CC3)cc2)CC1 (stereo not shown) : IC50 was 0.0001 to 10 µM

Short answer for "CCOC(=O)NC(=O)N1CCC(C(C)(C)[C@H](O)c2c(F)c(Cl)cc3cn[nH]c23)CC1" : IC50 was 0.0001 to 10 µM

Short answer for CC1(C(O)c2c(Cl)ccn3cncc23)CCCCC1 (stereo not shown) : IC50 was 0.0001 to 10 µM

Short answer for CC1(C(O)c2c(F)c(Cl)c(F)c3cn[nH]c23)CCCCC1 (stereo not shown) : IC50 was 0.0001 to 10 µM

Short answer for "CC(F)(F)C1(C(C)(F)F)CC(O)(c2cc(Cl)cc3cn[nH]c23)C1" : IC50 was 0.0001 to 10 µM

---

# Assay target: Human Indoleamine 2,3-dioxygenase (IDO) (Homo sapiens, UniProt P14902)
# Construct: His tag (N); made in house; host or cells: E. coli
# Test: Human IDO enzymatic assay (kynurenine level)
# Assay type: biochemical
# Experimental setup: biochemical assay; comparative examples, 4,6 versus 5,7 indazole; read-out: IDO1
Readout: IC50 (nM)

Check out these entries, answers already filled in.
> print(dat)
                                   compound  assay.value
1  COC12CCC(C(O)c3cc(Cl)cc4[nH]ncc34)(CC1)CC2 (stereo not shown) [drawing 813]         6600
2  CC(C)(C1CCN(S(C)(=O)=O)CC1)C(O)c1cc(Cl)cc2cn[nH]c12 (stereo not shown) [drawing 814]           30
3  OC1(c2cc(Cl)cc3cn[nH]c23)CC2(CCC2)C1 [drawing 818]          140

[A] OC1(c2cc(Cl)cc3cn[nH]c23)CC2(CCOCC2)C1 [drawing 820]
[B] OC(c1cc(Cl)cc2cn[nH]c12)C1CCCCC1 (stereo not shown) [drawing 810]
Name the one with the greater IC50 value, either A or B as given. Please reply using the label of the selected record. A
(A: 160 nM, B: 50 nM)

---

# Assay target: Human Indoleamine 2,3-dioxygenase (IDO) (Homo sapiens, UniProt P14902)
# Construct: His tag (N); made in house; host or cells: E. coli
# Test: Human IDO enzymatic assay (kynurenine level)
# Type: biochemical
# Experimental setup: 6 nM IDO, 10 μM L-Trp; geometric mean; read-out: IDO1 GMean: IC50 (μM) (Biochemical Assay)
# maps each entry to its IC50

Check out these entries, answers already filled in.
> print(dat)
                                   compound      assay.value
1  CC(C)(C1CCN(C(=O)N2CCOCC2)CC1)C(O)c1cc(Cl)cc2cn[nH]c12 (stereo not shown)  0.0001 to 10 µM
2  N#Cc1ccc(NC(=O)N2CCC(C(F)(F)C(O)c3cc(Cl)cc4cn[nH]c34)CC2)cc1 (stereo not shown)  0.0001 to 10 µM
3  CC1(C)CN(c2cc(C(F)(F)F)cc3cn[nH]c23)CCN1S(C)(=O)=O  0.0001 to 10 µM
4  O=C(CC1CCOCC1)N1CCC(C(F)(F)C(O)c2cc(Cl)cc3cn[nH]c23)CC1 (stereo not shown)  0.0001 to 10 µM
5  OC(c1cc(Cl)cc2cn[nH]c12)C12CCC(C(F)F)(CC1)CC2 (stereo not shown)  0.0001 to 10 µM
6  Nc1nc(C(=O)N2CCC(C3(C(O)c4cc(Cl)cc5cn[nH]c45)CC3)CC2)cs1 (stereo not shown)  0.0001 to 10 µM

Short answer for OC(c1cccc(N2CCOCC2)c1)c1cccc2cncn12 (stereo not shown) : IC50 was 10 to 100 µM

Short answer for O=C(Cc1ccnc(Cl)c1)N1CCC(C(F)(F)C(O)c2cc(Cl)cc3cn[nH]c23)CC1 (stereo not shown) : IC50 was 0.0001 to 10 µM

Short answer for CC(=O)N1C[C@H]2CC[C@@H](C1)[C@H]2C(F)(F)C(O)c1c(F)c(Cl)cc2cn[nH]c12 (stereo partly shown) : IC50 was 0.0001 to 10 µM

Short answer for CC(C)(C1CCOCC1)C(O)c1cc(Cl)cc2cn[nH]c12 (stereo not shown) : IC50 was 0.0001 to 10 µM

Short answer for OC(c1ccccc1F)c1cccc2cncn12 (stereo not shown) : IC50 was 0.0001 to 10 µM
